Molecular target: human notum pectinacetyltransferase (Homo sapiens, UniProt Q6P988)
Construct: made in house; unpurified conditioned medium used
Test: Reporter assay (CellSensor LEF/TCF-bla FreeStyle 293F cells, Wnt3a and notum conditioned media)
Assay type: cell-based
Conditions: class symbols
Reported endpoint: EC50

Compound: COC(C)(C)CNC(=O)c1cc2c(s1)-c1ccc(Cl)c(F)c1OC2
Endpoint value: < 500 nM

Compound: Cc1ccc(C)c2c1OCc1cc(C(N)=O)sc1-2
Endpoint value: < 50 nM

Compound: NC(=O)c1cc2c(s1)-c1cccc(Cl)c1SC2
Endpoint value: < 50 nM

Compound: O=C(NCc1ccccn1)c1cc2c(s1)-c1ccc(F)c(F)c1CC2
Endpoint value: < 50 nM

Compound: COc1ccc2c(c1Br)CCc1cc(C(=O)O)sc1-2
Endpoint value: < 50 nM

Compound: Cc1ccc(Cl)c2c1-c1sc(C(=O)O)cc1CO2
Endpoint value: < 50 nM

Compound: COC(=O)CNC(=O)c1cc2c(s1)-c1cc(C)cc(C)c1CC2
Endpoint value: < 100 nM

Compound: NC(=O)c1cc2c(s1)-c1cc(F)cc(F)c1CC2
Endpoint value: < 50 nM

Compound: Cc1ccc2c(c1Cl)CCc1cc(C(=O)O)sc1-2
Endpoint value: < 50 nM

Compound: NC(=O)c1cc2c(s1)-c1ccsc1CC2
Endpoint value: < 50 nM

Compound: CCC1Cc2cc(C(=O)O)sc2-c2c(F)ccc(F)c21 (stereo not shown)
Endpoint value: < 50 nM

Compound: O=C(O)C1CN(C(=O)c2cc3c(s2)-c2ccc(Cl)c(Cl)c2OC3)CC1c1ccccc1F (racemic)
Endpoint value: < 50 nM

Compound: COc1ccc2c(c1Cl)CCc1cc(C(=O)NCCC#N)sc1-2
Endpoint value: < 50 nM

Compound: COc1ccc2c(c1Cl)CCc1cc(C(=O)NCCc3nnn[nH]3)sc1-2
Endpoint value: < 50 nM

Compound: Nc1c(C(=O)O)sc2c1CSc1ccccc1-2
Endpoint value: < 50 nM

Compound: NC(=O)c1cc2c(s1)-c1cc(Br)ccc1OC2
Endpoint value: < 50 nM

Compound: N#CC1CCN(C(=O)c2cc3c(s2)-c2ccc(Cl)c(F)c2OC3)C1 (stereo not shown)
Endpoint value: < 50 nM

Compound: O=C(NCCO)c1cc2c(s1)-c1ccccc1CC2
Endpoint value: < 50 nM

Compound: COC(=O)C1CN(C(=O)c2cc3c(s2)-c2ccc(Cl)c(F)c2OC3)CC1c1ccccc1F (stereo not shown)
Endpoint value: < 50 nM

Compound: O=C(O)c1cc2ccc3scc(Cl)c3c2s1
Endpoint value: < 1000 nM

Compound: CC1Cc2cc(C(=O)O)sc2-c2cc(F)c(F)cc21 (stereo not shown)
Endpoint value: < 50 nM

Compound: Cc1cc(C)c2c(c1)OCc1cc(C(=O)O)sc1-2
Endpoint value: < 50 nM

Compound: Cc1ccc(C)c2c1-c1sc(C(=O)O)cc1CS2(=O)=O
Endpoint value: < 500 nM

Compound: O=C(O)c1cc2c(s1)-c1cc(Cl)ccc1OCC2
Endpoint value: < 100 nM

Compound: CCOC(=O)c1cc2c(s1)-c1ccccc1CC2
Endpoint value: < 50 nM

Compound: O=C(O)c1cc2c(s1)-c1cccc(Cl)c1SC2
Endpoint value: < 50 nM

Compound: NC(=O)c1cc2c(s1)-c1cccc(F)c1OC2
Endpoint value: < 50 nM

Compound: CC1(C)Oc2c(F)cc(F)cc2-c2sc(C(N)=O)cc21
Endpoint value: < 500 nM

Compound: Cc1cc(C)c2c(c1)OCc1cc(C(N)=O)sc1-2
Endpoint value: < 50 nM

Compound: CC1(C)Cc2cc(C(=O)O)sc2-c2cc(F)c(F)cc21
Endpoint value: < 50 nM

Compound: NC(=O)c1cc2c(s1)-c1cc(F)ccc1OC2
Endpoint value: < 50 nM

Compound: Cc1c(F)ccc2c1OCc1cc(C(=O)O)sc1-2
Endpoint value: < 50 nM

Compound: O=C(O)c1cc2c(s1)-c1ccc(Br)cc1CC2
Endpoint value: < 50 nM

Compound: NC(=O)c1cc2c(s1)-c1ccc(F)c(F)c1CC2
Endpoint value: < 50 nM

Compound: Cc1cc2c(cc1F)-c1sc(C(=O)O)cc1CS2
Endpoint value: < 50 nM

Compound: CC1Cc2cc(C(=O)O)sc2-c2cc(F)cc(F)c21 (stereo not shown)
Endpoint value: < 50 nM

Compound: CC(C)c1ccc2c(c1)-c1sc(C(N)=O)cc1CO2
Endpoint value: < 1000 nM

Compound: CCOC(=O)c1cc2c(s1)-c1ccc(C)c(C#N)c1CC2
Endpoint value: < 50 nM

Compound: NC(=O)c1cc2c(s1)-c1cccc(Cl)c1OC2
Endpoint value: < 50 nM

Compound: CC1Cc2cc(C(N)=O)sc2-c2ccc(Cl)cc21 (stereo not shown)
Endpoint value: < 50 nM

Compound: O=C(NC1CC1)c1cc2c(s1)-c1ccccc1CC2
Endpoint value: < 50 nM

Compound: CCOC(=O)c1cc2c(s1)-c1cc(C)cc(F)c1CC2
Endpoint value: < 50 nM

Compound: NC(=O)c1cc2c(s1)-c1ccc(Cl)cc1OC2
Endpoint value: < 50 nM

Compound: NC(=O)c1cc2c(s1)-c1ccc(Cl)c(Cl)c1OCC2
Endpoint value: < 50 nM

Compound: NC(=O)c1cc2c(s1)-c1ccccc1OC2 [4H-thieno[3,2-c]chromene-2-carboxamide]
Endpoint value: < 50 nM

Compound: O=C(NCCN1CCCCC1)c1cc2c(s1)-c1ccccc1CC2
Endpoint value: < 1000 nM

Compound: Cc1cc(C)c2c(c1)-c1sc(C(=O)O)cc1CC2
Endpoint value: < 50 nM

Compound: NC(=O)c1cc2c(s1)-c1c(cc(F)c(F)c1F)OC2
Endpoint value: < 50 nM

Compound: O=C(O)c1cc2c(s1)-c1cc(F)c(Cl)cc1SC2
Endpoint value: < 50 nM

---

We begin with a simple list: items and their reported pIC50.
Biological target: human notum pectinacetyltransferase (Homo sapiens, UniProt Q6P988)
Construct: made in house; unpurified conditioned medium used
Assay: Binding assay (OPTS esterase substrate, fluorimetric)
Format: biochemical
Details: class symbols
pIC50: −log10 of the molar value.
Reported endpoint: pIC50

Molecule: NC(=O)c1cc2c(s1)-c1ccccc1OC2 [4H-thieno[3,2-c]chromene-2-carboxamide]
Reported endpoint: pIC50
Endpoint value: > 7.30
//
Molecule: O=C(O)c1cc2c(s1)-c1cc(F)c(Cl)cc1S(=O)(=O)C2
Reported endpoint: pIC50
Endpoint value: > 5.70
//
Molecule: O=C(NCCO)c1cc2c(s1)-c1cccc(F)c1CC2
Reported endpoint: pIC50
Endpoint value: > 6.00
//
Molecule: Cc1ccc2c(c1C)-c1sc(C(N)=O)cc1CC2
Reported endpoint: pIC50
Endpoint value: > 6.00
//
Molecule: COc1ccc2c(c1Cl)CCc1cc(C(=O)NCCC#N)sc1-2
Reported endpoint: pIC50
Endpoint value: > 6.00
//
Molecule: Cc1ccc2c(c1[N+](=O)[O-])CCc1cc(C(=O)O)sc1-2
Reported endpoint: pIC50
Endpoint value: > 7.30
//
Molecule: Cc1cc(F)cc2c1SCc1cc(C(=O)O)sc1-2
Reported endpoint: pIC50
Endpoint value: > 6.00
//
Molecule: COc1ccc2c(c1F)CCc1cc(C(=O)O)sc1-2
Reported endpoint: pIC50
Endpoint value: > 7.00
//
Molecule: Cc1ccc2c(c1C)CCc1cc(C(=O)O)sc1-2
Reported endpoint: pIC50
Endpoint value: > 6.00
//
Molecule: COc1ccc2c(c1Cl)CCc1cc(C(=O)NCCO)sc1-2
Reported endpoint: pIC50
Endpoint value: > 6.00
//
Molecule: O=C(O)C1CCCN1C(=O)c1cc2c(s1)-c1cc(F)cc(F)c1SC2 (centres unmarked)
Reported endpoint: pIC50
Endpoint value: > 5.70

---

Target: human notum pectinacetyltransferase (Homo sapiens, UniProt Q6P988)
Construct: made in house; unpurified conditioned medium used
Sequence (Q6P988 20-496): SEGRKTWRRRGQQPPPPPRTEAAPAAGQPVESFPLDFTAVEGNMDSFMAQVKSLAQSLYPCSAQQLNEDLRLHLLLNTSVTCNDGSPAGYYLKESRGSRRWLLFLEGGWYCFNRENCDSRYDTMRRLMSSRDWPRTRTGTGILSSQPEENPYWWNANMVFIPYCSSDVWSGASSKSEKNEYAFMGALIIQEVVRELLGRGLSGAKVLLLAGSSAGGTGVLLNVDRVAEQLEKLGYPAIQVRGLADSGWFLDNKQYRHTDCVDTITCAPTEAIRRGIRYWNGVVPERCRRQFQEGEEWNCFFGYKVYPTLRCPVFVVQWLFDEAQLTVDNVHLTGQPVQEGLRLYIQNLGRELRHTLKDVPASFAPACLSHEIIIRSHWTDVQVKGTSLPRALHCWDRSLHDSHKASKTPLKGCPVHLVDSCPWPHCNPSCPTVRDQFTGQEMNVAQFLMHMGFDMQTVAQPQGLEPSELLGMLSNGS
Experiment: Reporter assay (CellSensor LEF/TCF-bla FreeStyle 293F cells, Wnt3a and notum conditioned media)
Assay type: cell-based
Conditions: given as numeric bound above the legend's classes
Protocol: Plasmid containing human notum pectinacetyltransferase in pcDNA3.1(+) vector was transfected into HEK (293 cells and clones were selecting by growing in presence of 400 ug/mL of G418. The clone containing highest expression of human notum pectinacetyltransferase in the conditioned media was maintained for all future activity assays. L cells overexpressing and secreting Wnt3a into the conditioned media were purchased from ATCC. The assay protocol was as follows. […]

Structure as smiles: O=C(O)c1cc2c(s1)-c1ccoc1CC2
EC50: > 1000 nM
--
Structure as smiles: O=C(O)c1cc2c(s1)-c1scnc1CC2
EC50: > 1000 nM
